Property: MRT; scope: individual molecules
- experiment: MRT in rat at 2 mg/kg, po
- Assay type: ADME, organism-based
- Set-up: dose 2 mg/kg, route oral
- testContext: in vivo
readoutLabel: MRT (h)

[[record]]
compoundstring = "Cc1cn(-c2cc(NC(=O)c3cccc(-c4ccc5nc(NC(=O)C6CC6)sc5n4)c3)cc(C(F)(F)F)c2)cn1"
unittext = "h"
experimentalvalue = 5.3

[[record]]
compoundstring = "CCN1CCN(Cc2ccc(NC(=O)c3cccc(-c4ccc5nc(NC(=O)C6CC6)sc5n4)c3)cc2C(F)(F)F)CC1"
unittext = "h"
experimentalvalue = 7.7


###

- experiment: Cmax in rat at 1 mg/kg, iv
- Type: ADME, organism-based
- Design: dose 1 mg/kg, route intravenous
- testContext: in vivo
readoutLabel: Cmax (ng/mL)

[[record]]
compoundstring = "Cc1cn(-c2cc(NC(=O)c3cccc(-c4ccc5nc(NC(=O)C6CC6)sc5n4)c3)cc(C(F)(F)F)c2)cn1"
unittext = "ng/mL"
experimentalvalue = 672

[[record]]
compoundstring = "CCN1CCN(Cc2ccc(NC(=O)c3cccc(-c4ccc5nc(NC(=O)C6CC6)sc5n4)c3)cc2C(F)(F)F)CC1"
unittext = "ng/mL"
experimentalvalue = 292

